- Test system: T47D
- Test details: NCI tumour cell line growth inhibition, 48 h
Active and inactive are the calls of the source. Rule as the data show it: active = GI50 up to about 1.1 µM and inactive = higher. Where a SMILES comes first, the peptide text is derived from it. [ ]: non-standard residue; d: D form. The star is where a group is joined. ξ: configuration not given here. ξPhe(4-NO2) = NC(Cc1ccc([N+](=O)[O-])cc1)C(=O)O; Boc = CC(C)(C)OC(=O)*
Quantity name: GI50

Before answering, review these 8 worked examples.
1) CCNC(=O)CNC(=O)C(Cc1ccc([N+](=O)[O-])cc1)NC(=O)OC(C)(C)C (centres undefined) (Boc-[ξPhe(4-NO2)]-Gly-NHEt); > 10 µM (inactive)
2) CC(C)(C)C(=O)C(N)C(=O)C(C)(C)C; > 100 µM (inactive)
3) O=C(NO)c1ccc(C(=O)NO)cc1; 30.3 µM (inactive)
4) [O-][S+](Nc1ccccc1)c1ccc(-c2ccccc2)cc1 (centres undefined); 11.5 µM (inactive)
5) O=C(Nc1ccccc1)Oc1ccc(C(=S)Nc2ccc(Br)cc2)cc1; 22.2 µM (inactive)
6) CC(C)(C)OC(=O)NC(CCCCNC(=O)OCc1ccccc1)C(=O)NCCNc1ccc(NCCNC(=O)C(CCCCNC(=O)OCc2ccccc2)NC(=O)OC(C)(C)C)c2c1C(=O)c1ccccc1C2=O (centres undefined); 5.11 µM (inactive)
7) Cc1ccc2nc(Cl)c(/C=N/N3C(=O)/C(=C/c4ccc(N(C)C)cc4)N=C3c3ccccc3)cc2c1; 43.4 µM (inactive)
8) CCOC(=O)Cc1c(C(=O)OCC)[n+]([O-])c2cc(Cl)c(Cl)cc2[n+]1[O-]; 0.982 µM (active)

Let us move to another entry and its GI50.
Entry COc1ccc2nc(-c3ccccc3)cc(OCC(=O)O)c2c1 , GI50 reported as > 100 µM (inactive)

###

- Tested on: KM-20L2
- Test details: NCI tumour cell line growth inhibition, 48 h
The source made the active and inactive calls. Rule as the data show it: active = GI50 up to about 1.1 µM and inactive = higher.
Outcome field: choose from active, inactive

For orientation, consider the following solved cases.
1) O=C(CCc1ccccc1)NS(=O)(=O)c1ccccc1; inactive
2) Nc1ccc(C(=O)N/C(=C\c2ccc3c(c2)OCO3)c2nc3ccc4c(c3[nH]2)C(=O)c2ccccc2C4=O)cc1; inactive
3) CC1(C)OC(=O)C(=C2CC(c3ccccc3)c3ccccc32)C(=O)O1 (stereo not given); inactive
4) O=C(O)CC/C(=N\Nc1nsc2ccccc12)c1ccc(Cl)cc1; inactive
5) CCCCCCCCCCCCCCCCCC(=O)NCC(COP(=O)([O-])OCC[N+](C)(C)C)OC (stereo not given); inactive

Per the records of this test, what outcome belongs to NC(CS)C(=O)NCCNc1ccc(NCCNC(=O)C(N)CS)c2c1C(=O)c1c(O)ccc(O)c1C2=O (stereo not given) ?
active

###

- Test system: CCRF-CEM
- Test details: NCI tumour cell line growth inhibition, 48 h
Active and inactive are the calls of the source. Rule as the data show it: active = GI50 up to about 1.1 µM and inactive = higher.
Answer with one of the outcomes t = active, f = inactive

Answered examples (7):
1. COc1ccc2c(c1)CCN=C2Cc1ccccc1CCCl; f
2. C/C=C(\C)C(O)C(C)C(O)C/C=C(C)/C=C(\C)C/C(C)=C/C/C=C(\C)C(O)C(C)c1ccc(CCC)c(=O)o1 (stereo not drawn); f
3. Oc1ccc(-c2nn3c(CCCCCCCCc4nnc5sc(-c6ccc(O)cc6)nn45)nnc3s2)cc1; f
4. CC1=[N+]([O-])C(C)(C)N(O)C1(C)C; f
5. O=C1C[C@H]2[C@@H](O1)[C@@H](O)CN1C(=O)c3ccccc3[C@H]21; f
6. C=C(C)C1CC2=C(O1)C(=O)c1ccccc1C2=O (stereo not drawn) [DEHYDROISO-ALPHA-LAPACHONE]; f
7. CC(=O)O[C@H]1C(=O)[C@@]2(C)[C@H]([C@H](OC(=O)c3ccccc3)[C@]3(O)C[C@H](OC(=O)[C@H](O)[C@@H](NC(=O)c4ccco4)c4ccccc4)C(C)=C1C3(C)C)[C@]1(OC(C)=O)CO[C@@H]1C[C@@H]2O; t

Name the outcome recorded for CC(C)(C)OC(=O)N1Cc2cc(O)ccc2C[C@H]1C(=O)O in the assay.
f

###

- Test system: XF498
- Test details: NCI tumour cell line growth inhibition, 48 h
Activity calls are given as the source filed them. No stated cut-off is given here; in the data, active = GI50 up to about 1.1 µM and inactive = higher.
Measured GI50, listed per entry for reference.

Example entries begin here.
1. CCCCCCCCCCCCCCCCCC(=O)NCC(COP(=O)([O-])OCC[N+](C)(C)C)OC (centres undefined); 2.71 µM (inactive)
2. c1ccc2c(NCCCCCCNc3c4ccccc4nc4ccccc34)c3ccccc3nc2c1; 1.41 µM (inactive)
3. S=C1ON=C(c2ccccc2)/C1=C/Nc1ccccc1; > 100 µM (inactive)

Now look at this entry.
Notebook: [O-][S+]1Nc2cccc(C(F)(F)F)c2S1 (centres undefined) , GI50 read as 21.1 µM (inactive)

###

- Tested on: RXF 393
- Test details: NCI tumour cell line growth inhibition, 48 h
Activity calls are given as the source filed them. Rule as the data show it: active = GI50 up to about 1.1 µM and inactive = higher.
Result category, one only: active, inactive

1) Cc1nc(O)c(Cc2ccccc2O)c(-c2ccccc2)n1; inactive
2) CN(Cc1cc(Cl)cc(Cl)c1O)Cc1c(O)ccc2ccccc12; inactive
3) CC(C)(C)C(=O)C(N)C(=O)C(C)(C)C; inactive

Could you check what this test reported for COc1ccc2c(c1)c1nn(CCN(C)C)c3ccc4c(=O)n(CCN(C)C)c(=O)n2c4c13 ?
active

Hey, what did the test say about C/C(Sc1ccccc1)=C1/CCCN(Cc2ccccc2)C1 ?
inactive

State the result this test recorded for NC(=O)c1ccc(NCC2=CC(=O)C=CC2=O)cc1 .
inactive

###

- Tested on: SNB-75
- Test details: NCI tumour cell line growth inhibition, 48 h
The source made the active and inactive calls. Rule as the data show it: active = GI50 up to about 1.1 µM and inactive = higher.
Each item that follows carries a reported GI50.

Some solved cases for reference:
1. Cc1ccc2nc(Cl)c(/C=N/N3C(=O)/C(=C/c4ccc(N(C)C)cc4)N=C3c3ccccc3)cc2c1; 24 µM (inactive)
2. NC(CCC(=O)O)(CCC(=O)O)CCC(=O)O; > 100 µM (inactive)
3. COC(=O)C1CC23CCCN4CCC5(c6ccccc6N(C=O)C15CC2)C43 (centres undefined); > 100 µM (inactive)

// recorded GI50 for C/C=C(\C)C(O)C(C)C(O)C/C=C(C)/C=C(\C)C/C(C)=C/C/C=C(\C)C(O)C(C)c1ccc(CCC)c(=O)o1 (centres undefined) : 10.8 µM (inactive)

The compound CN(C)c1ccc(/C(F)=C(F)/C(F)=C(F)/C(F)=C(\F)c2ccc(Br)cc2)cc1 showed GI50 equal to 27.2 µM (inactive)

Notebook: COc1cc2c(cc1OC)CC(N=[N+]=[N-])c1cc(OC)c(OC)cc1/C=C\2 (centres undefined) , GI50 read as 16.6 µM (inactive)

For record COC(=O)[C@H](Cc1ccccc1)NC(=O)N1CCN(C(=O)N[C@@H](Cc2ccccc2)C(=O)OC)CCN(C(=O)N[C@@H](Cc2ccccc2)C(=O)OC)CC1 the listed GI50 is > 100 µM (inactive)

Entry Cc1c(/N=N/c2ccc(Cl)cc2)c(-c2ccccc2)n(C2OC(CO)C(O)C(O)C2O)c(=S)c1C#N (centres undefined) ; GI50 = 18.7 µM (inactive)

Form: compound = [O-]/[N+](=C\c1ccccc1)[C@H](COCc1ccccc1)c1ccccc1 ; GI50 = 74.3 µM (inactive)

###

- Test system: NCI-H460
- Test details: NCI tumour cell line growth inhibition, 48 h
Calls of active or inactive are those of the source. Rule as the data show it: active = GI50 up to about 1.1 µM and inactive = higher.
// allowed return values: y = active, n = inactive

Take a look at these entries with their results.
1. CCCCOc1ccc(/C=C/C2=[N+](CCO)CCO2)cc1; n
2. CCC1(CC)SCc2nc3ccccc3n21; n
3. CN(C)c1ccc(/C(F)=C(F)/C(F)=C(F)/C(F)=C(\F)c2ccc(Br)cc2)cc1; n
4. CC(=O)OCCOCNC(=S)N/N=C/c1cc(Br)cs1; n
5. C=CCn1c(-c2ccc([N+](=O)[O-])cc2)csc1=N; n

// outcome(item) with item = COc1ccc2c(c1)CCN=C2Cc1ccccc1CCCl
n

Which outcome did this test record for the molecule O=C(Nn1c(-c2ccccc2)nc2ccccc2c1=O)c1cccc([N+](=O)[O-])c1 ?
n

Field: outcome | Entry: COc1cc(/C=C2\N=C(c3ccccc3)N(/N=C/c3cc4cc(C)ccc4nc3Cl)C2=O)cc(OC)c1OC
n

Dear all, I need the recorded test outcome for O=C(Cn1c2c(c3ccccc31)CCCC2)N1CCCCC1 , thank you.
n

Returns: the outcome recorded for CC1CC[C@@]2(OC1)OC1C[C@H]3[C@@H]4CC=C5CC(OC6OC(CO)C(OC7OC(CO)C(O)C(OC8OCC(O)C(O)C8O)C7OC7OC(CO)C(O)C(O)C7O)C(O)C6O)CCC5(C)[C@H]4CCC3(C)C1[C@@H]2C (stereo partly specified) in this assay.
n

Entry COc1ccc(/C=C(/C(=O)c2ccc(Cl)cc2)N2C=CC=CC2=C(C#N)C#N)cc1OC : call = ?
n

In this assay, the call recorded for CN1C(NN)=NS(=O)(=O)c2ccccc21 was what?
n

Answer briefly: the call reported for COc1cc2cc(OC)c3cc4c(cc3c2c(OC)c1OC)OCO4 in this assay.
n

Which result was noted for this molecule in the test: COc1ccc2nc3ccccc3c(NCCCN(C)CCCl)c2c1
y

These entries and their values trace back to ChEMBL document CHEMBL1201862.
